Each entry below carries its recorded pIC50.
Molecular target: KRAS G12D (Homo sapiens, UniProt P01116, G12D)
Sequence (P01116 1-169 isoform P01116-2 G12D): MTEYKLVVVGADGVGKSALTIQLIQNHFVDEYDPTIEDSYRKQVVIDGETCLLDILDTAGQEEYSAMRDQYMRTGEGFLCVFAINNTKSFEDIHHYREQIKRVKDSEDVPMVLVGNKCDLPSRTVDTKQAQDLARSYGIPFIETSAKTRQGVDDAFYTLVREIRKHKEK
Test: In-vitro RAS-RAF binding assay (RRB), HTRF/FRET
Assay type: biochemical
Set-up: Biotinylated KRAS protein amino acids 1-169 (produced at Erasca); made in house
Conditions: Table 2, average of multiple runs of each compound; read-out: Inhibition of RAS-RAF Binding (in-vitro) KRAS (G12D) IC50
# reply with the number alone; pIC50 is -log10 of concentration in mol/L

# compound, pIC50
rows = [
    ("C#Cc1c(F)ccc2cc(O)cc(-c3ncc4c(N5CC6CCC(C5)N6)nc(OC[C@@H]5CCCN5CCCOCCC(=O)N[C@H](C(=O)N5C[C@H](O)C[C@H]5C(=O)N[C@@H](C)c5ccc(-c6c(F)c(F)cc(F)c6F)cc5)C(C)(C)C)nc4c3F)c12 [Example 54]", 8.02),
    ("Cc1ncsc1-c1ccc([C@H](C)NC(=O)[C@@H]2C[C@@H](O)CN2C(=O)[C@@H](NC(=O)CCCCN2CCC[C@H]2COc2nc(N3CC4CCC(C3)N4)c3cc(Cl)c(-c4ccc(F)c5sc(N)c(C#N)c45)c(F)c3n2)C(C)(C)C)cc1 [Example 84]", 7.89),
    ("CC(C)[C@@H](C(=O)N1C[C@H](O)C[C@H]1C(=O)N[C@@H](C)c1ccc(-c2c(F)cc(F)cc2F)cc1)c1cc(OCC2(C)CCN(CCOc3nc(N4CC5CCC(C4)N5)c4cc(Cl)c(-c5ccc(F)c6sc(N)c(C#N)c56)c(F)c4n3)CC2)no1 [Example 72]", 7.53),
]

--- query ---
Problem: Suppose we examine the compound C#Cc1c(F)ccc2cc(O)cc(-c3ncc4c(N5CC6CCC(C5)N6)nc(OC[C@@H]5CCCN5CCCOCCC(=O)N[C@H](C(=O)N5C[C@H](O)C[C@H]5C(=O)N[C@@H](C)c5ccc(-c6c(F)ccc(F)c6F)cc5)C(C)(C)C)nc4c3F)c12 [Example 44] ; what pIC50 value has been reported?
Result: 8.05

====

Biological target: KRas G12D fused to HiBiT peptide (Homo sapiens, UniProt P01116, G12D)
Construct: endogenous in cells; host or cells: AsPC-1 HiBiT knock-in single clone (Cas9 RNP + ssODN)
Sequence (P01116 1-188 isoform P01116-2 G12D): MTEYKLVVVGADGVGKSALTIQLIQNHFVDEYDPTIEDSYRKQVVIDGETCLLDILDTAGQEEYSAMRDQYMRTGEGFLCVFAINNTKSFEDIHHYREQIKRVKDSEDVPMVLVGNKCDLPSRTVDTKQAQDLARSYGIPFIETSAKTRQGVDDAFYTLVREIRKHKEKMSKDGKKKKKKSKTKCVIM
Experiment: ASPC-1 HiBit assay to determine G12D degradation
Type: cell-based
Details: AsPC-1 HiBiT cells, 24-hour incubation; read-out: ASPC-1 HiBit DC50 (C)
property measured: log10(DC50) (log10 of the value in nM)
Short version: log10 scale, DC50, nM.

# compound, log10(DC50)
data = [
    ("C#Cc1c(F)ccc2cc(O)cc(-c3ncc4c(N5CC6CCC(C5)N6)nc(OCCN5CCC(COc6cc([C@H](C(=O)N7C[C@H](O)C[C@H]7C(=O)N[C@@H](C)c7ccc(-c8scnc8C)cc7)C(C)C)on6)CC5)nc4c3F)c12", 2.03),
]

Problem: Which log10(DC50) is listed for CC(C)[C@@H](C(=O)N1C[C@H](O)C[C@H]1C(=O)N[C@@H](C)c1ccc(-c2c(F)cccc2F)cc1)c1cc(N2CC3(CCN(CCOc4nc(N5CC6CCC(C5)N6)c5cc(Cl)c(-c6ccc(F)c7sc(N)c(C#N)c67)c(F)c5n4)CC3)C2)no1 ?
Result: 2.70

Problem: I have this compound here, C#Cc1c(F)ccc2cc(O)cc(-c3ncc4c(N5CC6CCC(C5)N6)nc(OCCN5CCC6(C5)CN(c5cc([C@H](C(=O)N7C[C@H](O)C[C@H]7C(=O)N[C@@H](C)c7ccc(-c8c(F)cccc8F)cc7)C(C)C)on5)C6)nc4c3F)c12 , and I need its recorded log10(DC50).
Result: 2.85

Problem: What does the data say about its log10(DC50)? Entry: C[C@H](NC(=O)[C@@H]1C[C@@H](O)CN1C(=O)[C@@H](NC(=O)CCOCCCN1CCC[C@H]1COc1nc(N2CC3CCC(C2)N3)c2cc(C(F)(F)F)c(-c3ccc(F)c4sc(N)c(C#N)c34)c(F)c2n1)C(C)(C)C)c1ccc(-c2cccc(F)c2F)cc1
Result: 1.58

Problem: Item under review: C#Cc1c(F)ccc2cc(O)cc(-c3ncc4c(N5CC6CCC(C5)N6)nc(OC[C@@H]5CCCN5CCCOCCC(=O)N[C@H](C(=O)N5C[C@H](O)C[C@H]5C(=O)N[C@@H](C)c5ccc(-c6c(F)cccc6F)cc5)C(C)(C)C)nc4c3F)c12 . Reported log10(DC50)?
Result: 2.52

Problem: Entry C#Cc1c(F)ccc2cc(O)cc(-c3ncc4c(N5CC6CCC(C5)N6)nc(OC[C@@H]5CCCN5CCCOCCC(=O)N[C@H](C(=O)N5C[C@H](O)C[C@H]5C(=O)N[C@@H](C)c5ccc(-c6c(F)cc(F)cc6F)cc5)C(C)(C)C)nc4c3F)c12 : reported log10(DC50) = ?
Result: 2.51

Problem: I have this compound here, C[C@H](NC(=O)[C@@H]1C[C@@H](O)CN1C(=O)[C@@H](NC(=O)CCOCCCN1CCCC1COc1nc(N2CC3CCC(C2)N3)c2cc(Cl)c(-c3ccc(F)c4sc(N)c(C#N)c34)c(F)c2n1)C(C)(C)C)c1ccc(-c2c(F)cccc2F)cc1 (some centres unmarked) [Example 12] , and I need its recorded log10(DC50).
Result: 1.89

Problem: Which measured log10(DC50) value corresponds to CC(C)[C@@H](C(=O)N1C[C@H](O)C[C@H]1C(=O)N[C@@H](C)c1ccc(-c2c(F)cc(F)cc2F)cc1)c1cc(N2CC3(CCN(CCOc4nc(N5CC6CCC(C5)N6)c5cc(Cl)c(-c6ccc(F)c7sc(N)c(C#N)c67)c(F)c5n4)CC3)C2)no1 ?
Result: 3.11

====

Biological target: KRAS G12D (Homo sapiens, UniProt P01116, G12D)
Test: In-vitro RAS-RAF binding assay (RRB), HTRF/FRET
Assay type: biochemical
Design: Biotinylated KRAS protein amino acids 1-169 (produced at Erasca); made in house
Conditions: Table 2, average of multiple runs of each compound; read-out: Inhibition of RAS-RAF Binding (in-vitro) KRAS (G12D) IC50
Catalogue of IC50 values
Entry rule: numbers only, all in nM.

# compound, assay system, IC50 [nM]
records = [
    ("C#Cc1c(F)ccc2cc(O)cc(-c3ncc4c(N5CC6CCC(C5)N6)nc(OCCN5CCC(COc6cc([C@H](C(=O)N7C[C@H](O)C[C@H]7C(=O)N[C@@H](C)c7ccc(-c8c(F)cc(F)cc8F)cc7)C(C)C)on6)CC5)nc4c3F)c12 [Example 63]", "KRAS G12D (Homo sapiens, UniProt P01116, G12D)", 10.6),
    ("C#Cc1c(F)ccc2cc(O)cc(-c3ncc4c(N5CC6CCC(C5)N6)nc(OCCN5CCC(C)(COc6cc([C@H](C(=O)N7C[C@H](O)C[C@H]7C(=O)N[C@@H](C)c7ccc(-c8c(F)cc(F)cc8F)cc7)C(C)C)on6)CC5)nc4c3F)c12 [Example 64]", "KRAS G12D (Homo sapiens, UniProt P01116, G12D)", 9.62),
    ("Cc1ncsc1-c1ccc([C@H](CO)NC(=O)[C@@H]2C[C@@H](O)CN2C(=O)[C@@H](NC(=O)CCOCCCN2CCC[C@H]2COc2nc(N3CC4CCC(C3)N4)c3cc(Cl)c(-c4ccc(F)c5sc(N)c(C#N)c45)c(F)c3n2)C(C)(C)C)cc1 [Example 9]", "KRAS G12D (Homo sapiens, UniProt P01116, G12D)", 13.8),
    ("C#Cc1c(F)ccc2cc(O)cc(-c3ncc4c(N5CC6CCC(C5)N6)nc(OCCN5CCC6(CC5)CN(c5cc([C@H](C(=O)N7C[C@H](O)C[C@H]7C(=O)N[C@@H](C)c7ccc(-c8cccc(F)c8F)cc7)C(C)C)on5)C6)nc4c3F)c12 [Example 98]", "KRAS G12D (Homo sapiens, UniProt P01116, G12D)", 16),
    ("C#Cc1c(F)ccc2cc(O)cc(-c3ncc4c(N5CC6CCC(C5)N6)nc(OC[C@@H]5CCCN5CCCOCCC(=O)O[C@H](C(=O)N5C[C@H](O)C[C@H]5C(=O)N[C@@H](C)c5ccc(-c6c(C)cccc6C(F)(F)F)cc5)C(C)(C)C)nc4c3F)c12 [Example 50]", "KRAS G12D (Homo sapiens, UniProt P01116, G12D)", 10.2),
    ("C#Cc1c(F)ccc2cc(O)cc(-c3ncc4c(N5CC6CCC(C5)N6)nc(OC[C@@H]5CCCN5CCCOCCC(=O)N[C@H](C(=O)N5C[C@H](O)C[C@H]5C(=O)N[C@@H](C)c5ccc(-c6c(F)cccc6F)cn5)C(C)(C)C)nc4c3F)c12 [Example 30]", "KRAS G12D (Homo sapiens, UniProt P01116, G12D)", 7.59),
]

Problem: Look up IC50 with KRAS G12D (Homo sapiens, UniProt P01116, G12D) for this compound: C[C@H](NC(=O)[C@@H]1C[C@@H](O)CN1C(=O)[C@@H](NC(=O)CCOCCCN1CCC[C@H]1COc1nc(N2CC3CCC(C2)N3)c2cc(C(F)(F)F)c(-c3ccc(F)c4sc(N)c(C#N)c34)c(F)c2n1)C(C)(C)C)c1ccc(-c2cccc(F)c2F)cc1 [Example 94]
Result: 9.2

Problem: Please state recorded IC50 (tested on KRAS G12D (Homo sapiens, UniProt P01116, G12D)) of Cc1ncsc1-c1ccc([C@H](C)NC(=O)[C@@H]2C[C@@H](O)CN2C(=O)[C@@H](NC(=O)CCCCN2CCC[C@H]2COc2nc(N3CC4CCC(C3)N4)c3cnc(-c4cc(O)cc5cccc(F)c45)c(F)c3n2)C(C)(C)C)cc1 [Example 82]
Result: 8.52

Problem: // lookup IC50 | system=KRAS G12D (Homo sapiens, UniProt P01116, G12D) | key= C#Cc1c(F)ccc2cc(O)cc(-c3ncc4c(N5CC6CCC(C5)N6)nc(OCCN5CCC(C)(COc6cc([C@H](C(=O)N7C[C@H](O)C[C@H]7C(=O)N[C@@H](C)c7ccc(-c8c(F)cccc8F)cc7)C(C)C)on6)CC5)nc4c3F)c12 [Example 61]
Result: 8.99

Problem: Observed IC50 on KRAS G12D (Homo sapiens, UniProt P01116, G12D) for CC(C)[C@@H](C(=O)N1C[C@H](O)C[C@H]1C(=O)N[C@@H](C)c1ccc(-c2c(F)cccc2F)cc1)c1cc(OCC2(F)CCN(CCOc3nc(N4CC5CCC(C4)N5)c4cc(Cl)c(-c5ccc(F)c6sc(N)c(C#N)c56)c(F)c4n3)CC2)no1 [Example 73] , please.
Result: 47.6

Problem: State its IC50 on KRAS G12D (Homo sapiens, UniProt P01116, G12D): Cc1cc(N)nc(-c2c(Cl)cc3c(N4CC5CCC(C4)N5)nc(OC[C@@H]4CCCN4CCCCCCCN4CCC(c5cc(F)cc6c5CN(C5CCC(=O)NC5=O)C6=O)CC4)nc3c2F)c1C(F)(F)F (stereo partly shown) [Example 5]
Result: 18.8

Problem: Tell me reported IC50 for C[C@H](NC(=O)[C@@H]1C[C@@H](O)CN1C(=O)[C@@H](NC(=O)CCCCN1CCC[C@H]1COc1nc(N2CC3CCC(C2)N3)c2cnc(-c3cc(O)cc4cccc(F)c34)c(F)c2n1)C(C)(C)C)c1ccc(-c2ccccc2)cc1 [Example 83] , tested with KRAS G12D (Homo sapiens, UniProt P01116, G12D).
Result: 7.7

Problem: For the record Cc1ncsc1-c1ccc([C@H](CO)NC(=O)[C@@H]2C[C@@H](O)CN2C(=O)[C@@H](NC(=O)CCCCN2CCC[C@H]2COc2nc(N3CC4CCC(C3)N4)c3cc(Cl)c(-c4ccc(F)c5sc(N)c(C#N)c45)c(F)c3n2)C(C)(C)C)cc1 [Example 88] , what value of IC50 is listed for KRAS G12D (Homo sapiens, UniProt P01116, G12D)?
Result: 16.3

Problem: Find IC50 (KRAS G12D (Homo sapiens, UniProt P01116, G12D)) for the entry C#Cc1c(F)ccc2cc(O)cc(-c3ncc4c(N5CC6CCC(C5)N6)nc(OCCN5CCC(F)(COc6cc([C@H](C(=O)N7C[C@H](O)C[C@H]7C(=O)N[C@@H](C)c7ccc(-c8c(F)cc(F)cc8F)cc7)C(C)C)on6)CC5)nc4c3F)c12 [Example 65]
Result: 11.1

Problem: GET /values?readout=IC50&system=KRAS G12D (Homo sapiens, UniProt P01116, G12D)&item= C#Cc1c(F)ccc2cc(O)cc(-c3ncc4c(N5CC6CCC(C5)N6)nc(OCCN5CCC(COc6cc([C@H](C(=O)N7C[C@H](O)C[C@H]7C(=O)N[C@@H](C)c7ccc(-c8scnc8C)cc7)C(C)C)on6)CC5)nc4c3F)c12 [Example 60]
Result: 9.55

Problem: Enter reported IC50 observed with KRAS G12D (Homo sapiens, UniProt P01116, G12D) for CC(C)[C@@H](C(=O)N1C[C@H](O)C[C@H]1C(=O)N[C@@H](C)c1ccc(-c2c(F)cccc2F)cc1)c1cc(OCC2(C)CCN(CCOc3nc(N4CC5CCC(C4)N5)c4cc(C(F)(F)F)c(-c5ccc(F)c6sc(N)c(C#N)c56)c(F)c4n3)CC2)no1 [Example 74]
Result: 18.1

Sourced from patent US20240293558A1
